These measurements were taken from patent US20110021621A1.

Recorded Lesion Index after 3 days for the following compounds
- Test system: circulatory insufficiency model of rats induced by injection of lauric-acid into their femoral artery
- PROCEDURE SUMMARY: Circulatory insufficiency model induced by lauric-acid in rats (lesion index)
- Format: in vivo, rat
- Set-up: key: summed toe lesion grades, +5 if heel reached; max 25 points
- RUN CONDITIONS: male Wistar rats; 30 mg/kg multiple oral dosing (1 h prior to and 3 h after lauric-acid, then twice daily); 3 days after lauric-acid injection; average, max 25 points

# SUBSTANCE SMILES, Lesion Index after 3 days
data = [
    ("CC(C)CCCOc1c(O)c2ccc(OCCO)cc2oc1=O", 2.8),
    ("CCCCOc1c(O)c2ccc(O)cc2oc1=O", 2.8),
    ("CCCCOc1c(O)c2c(OCC(=O)O)cccc2oc1=O", 3.0),
    ("CCCCCCOc1c(O)c2cc(O)ccc2oc1=O", 2.8),
    ("CCCCOc1c(O)c2c(OCCO)cccc2oc1=O", 3.4),
]

* * *

- PROCEDURE SUMMARY: Bioabsorption: plasma concentration measurement in rats with oral administration
- Assay type: in vivo, rat
- RUN CONDITIONS: male, SD, rat, plasma, 10 mg/kg, 8.0 h, read-out: plasma concentration, Mean, time point 8.0 h

# SUBSTANCE SMILES, concentration at 8 h
measured = [
    ("O=c1oc2ccc(Cl)cc2c(O)c1O", "100 ng/mL"),
    ("O=c1oc2ccccc2c(O)c1O", "200 ng/mL"),
]

* * *

Let's look at some compounds and their measured Lesion Index after 10 days.
- System: circulatory insufficiency model of rats induced by injection of lauric-acid into their femoral artery
- PROCEDURE SUMMARY: Circulatory insufficiency model induced by lauric-acid in rats (lesion index)
- Format: in vivo, rat
- Design: key: summed toe lesion grades, +5 if heel reached; max 25 points
- RUN CONDITIONS: male Wistar rats; 30 mg/kg multiple oral dosing (1 h prior to and 3 h after lauric-acid, then twice daily for 9 days); 10 days after lauric-acid injection; average, max 25 points

# COMPOUND, Lesion Index after 10 days
measured = [
    ("CCCCCCCCOc1c(O)c2ccc(O)cc2oc1=O", 7.5),
    ("CCCCCOc1c(O)c2ccc(O)cc2oc1=O", 7.9),
    ("CCOc1c(O)c2ccc(O)cc2oc1=O", 8.3),
    ("CCCCCCCCOc1c(O)c2c(OCC(O)CO)cccc2oc1=O (stereo not drawn)", 7.9),
    ("CCCCOc1c(O)c2ccc(O)cc2oc1=O", 7.3),
    ("CCCCCCOc1c(O)c2cccc(OCCO)c2oc1=O", 7.2),
    ("CCCCCCCCOc1c(O)c2ccc(OCCC(O)CO)cc2oc1=O (stereo not drawn)", 7.4),
    ("CCCCCCOc1c(O)c2c(O)cccc2oc1=O", 7.8),
    ("CCCCCCCCOc1c(O)c2ccc(OCCCO)cc2oc1=O", 7.8),
    ("CC(C)=CCCC(C)=CCOc1c(O)c2ccc(O)cc2oc1=O", 7.8),
    ("CCCOc1c(O)c2ccc(O)cc2oc1=O", 7.1),
    ("CCCCCCOc1c(O)c2cc(OCCC(O)CO)ccc2oc1=O (stereo not drawn)", 7.5),
    ("CCCCOc1c(O)c2c(OCC(=O)O)cccc2oc1=O", 7.2),
    ("CCCCCCOc1c(O)c2cccc(OCCCC)c2oc1=O", 7.9),
    ("CCCCCCCCOc1c(O)c2cc(OCCCC(=O)O)ccc2oc1=O", 7.9),
    ("CCCCCCC=COc1c(O)c2cccc(O)c2oc1=O", 7.4),
    ("CCCCCCCCOc1c(O)c2ccc(OCCO)cc2oc1=O", 7.2),
    ("CCCCCCCCOc1c(O)c2cccc(OCCCC(=O)O)c2oc1=O", 7.4),
    ("CCCCOc1c(O)c2c(OCCO)cccc2oc1=O", 7.9),
    ("CCOc1c(O)c2ccc(OC)cc2oc1=O", 7.2),
    ("CCCCCCOc1c(O)c2cc(O)ccc2oc1=O", 7.5),
]

* * *

- PROCEDURE SUMMARY: Bioabsorption: plasma concentration measurement in rats with oral administration
- Assay type: in vivo, rat
- RUN CONDITIONS: male, SD, rat, plasma, 10 mg/kg, 1.0 h, read-out: plasma concentration, Mean, time point 1.0 h
- Description: We conducted a plasma concentration measurement in rats with oral administration to compare the absorption of the compound of the present invention (compound No. 451) with the comparative compound A and B. […] 30 μL of methanol and 300 µL of acetonitrile were added to 120 μL of the obtained plasma, and mixed with a Vortex mixer for 15 seconds. […] After the mixture was centrifuged, the amount of each test compound remaining in the plasma was determined with liquid chromatography. […]

# MOLECULE, READOUT UNIT, concentration at 1 h
measured = [
    ("O=c1oc2ccccc2c(O)c1O [comparative compound A]", "ng/mL", 300),
    ("O=c1oc2ccc(Cl)cc2c(O)c1O [B]", "ng/mL", 2000),
]

* * *

- PROCEDURE SUMMARY: Bioabsorption: plasma concentration measurement in rats with oral administration
- Assay type: in vivo, rat
- RUN CONDITIONS: male, SD, rat, plasma, 10 mg/kg, 12.0 h, read-out: plasma concentration, Mean, time point 12.0 h

# SUBSTANCE SMILES, concentration at 12 h [ng/mL]
records = [
    ("O=c1oc2ccc(Cl)cc2c(O)c1O", 0),
]

* * *

- Test system: circulatory insufficiency model of rats induced by injection of lauric-acid into their femoral artery
- PROCEDURE SUMMARY: Circulatory insufficiency model induced by lauric-acid in rats (lesion index)
- Format: in vivo, rat
- Parameters: key: summed toe lesion grades, +5 if heel reached; max 25 points
- RUN CONDITIONS: male Wistar rats; 30 mg/kg multiple oral dosing (1 h prior to and 3 h after lauric-acid, then twice daily for 9 days); 10 days after lauric-acid injection; average, max 25 points
Response key: rule met means Lesion Index after 10 days >= 8; rule not met means Lesion Index after 10 days < 8.

# COMPOUND, ASSIGNED LABEL
data = [
    ("CC(C)=CCCC(C)=CCOc1ccc2c(O)c(OCC=C(C)CCC=C(C)C)c(=O)oc2c1", "rule not met"),
    ("CCCCCCOc1c(O)c2ccc(OCCO)cc2oc1=O", "rule not met"),
    ("CCCCC(CC)Oc1c(O)c2ccc(OCCCCO)cc2oc1=O (centres unmarked)", "rule not met"),
    ("CCCCCCOc1c(O)c2cc(OCCCC)ccc2oc1=O", "rule met"),
    ("CC(C)CCCOc1c(O)c2ccc(OCCO)cc2oc1=O", "rule not met"),
    ("CCCCC(CC)Oc1c(O)c2c(OCCO)cccc2oc1=O (centres unmarked)", "rule not met"),
    ("CCCCOc1c(O)c2c(OCCCO)cccc2oc1=O", "rule not met"),
    ("CCCCCCCCOc1c(O)c2c(OCCCCC(=O)O)cccc2oc1=O", "rule not met"),
    ("CCCCC(CC)Oc1c(O)c2ccc(OCC(=O)O)cc2oc1=O (centres unmarked)", "rule not met"),
    ("CCCCOc1c(O)c2cccc(O)c2oc1=O", "rule met"),
    ("CCC(CC)Oc1c(O)c2ccc(O)cc2oc1=O", "rule met"),
]

* * *

- System: bleeding time in male SD rats
- PROCEDURE SUMMARY: Effect on bleeding time in rats (tail cutting)
- RUN CONDITIONS: 30 mg/kg oral, 180 min between oral dosing and the tail cutting, max observation 60 min

# SUBSTANCE SMILES, Bleeding time, min
rows = [
    ("CCOc1c(O)c2ccc(OC)cc2oc1=O", 8.2),
    ("CCCCCCCCOc1c(O)c2ccc(OCCO)cc2oc1=O", 7.5),
    ("CCCCCCCCOc1c(O)c2ccc(OCCC(=O)O)cc2oc1=O", 8.1),
    ("CCCCCCOc1c(O)c2ccc(O)cc2oc1=O", 8.4),
    ("CCCCCCOc1c(O)c2ccc(OCCO)cc2oc1=O", 8.3),
]

* * *

Entries annotated with measured concentration at 4 h
- PROCEDURE SUMMARY: Bioabsorption: plasma concentration measurement in rats with oral administration
- Assay type: in vivo, rat
- RUN CONDITIONS: male, SD, rat, plasma, 10 mg/kg, 4.0 h, read-out: plasma concentration, Mean, time point 4.0 h
- Experimental: We conducted a plasma concentration measurement in rats with oral administration to compare the absorption of the compound of the present invention (compound No. 451) with the comparative compound A and B. […] 30 μL of methanol and 300 µL of acetonitrile were added to 120 μL of the obtained plasma, and mixed with a Vortex mixer for 15 seconds. […] After the mixture was centrifuged, the amount of each test compound remaining in the plasma was determined with liquid chromatography. […]

# SUBSTANCE SMILES, concentration at 4 h [ng/mL]
rows = [
    ("O=c1oc2ccccc2c(O)c1O", 300),
    ("O=c1oc2ccc(Cl)cc2c(O)c1O", 300),
]
